# Tested on: Tov112D
# assay_summary: Primary qHTS to identify gynecologic anti-cancer compounds using libraries of approved drugs and bioactive compounds (AID 1345084); note: % is set by controls: 0 for no effect and ±100 for the full control effect; nearly all actives have a fitted effect of over 55% in size
# reported_conditions: Gynecologic cancer cell panel viability, ATPlite luminescence, 48 h; series mostly up to 57.5 µM
# From the text: National Center for Advancing Translational Sciences [NCATS] Assay Overview: Chemotherapeutic drug responses vary from cancer to cancer and from patient to patient. […] ATPlite is a luminescence based assay reliant on the conversion of a luciferase substrate to light in the presence of ATP. As a cytotoxic compound will suppress growth and decrease the number of cells, the concentration of ATP will decrease, and less light signal will be detected in the well. […]
Inconclusive results are not listed. Activity calls are given as the source filed them. Calls come from the whole dose curve; as a rule, active = well fitted cell-killing curve with a large enough effect; inconclusive = small, poorly fitted or top-dose-only effect, or effect the other way; inactive = flat fitted curve, though single readings scatter.
value_kind: activity change, negative = cytotoxicity

INSERT INTO measurements (molecule, measured_result) VALUES
  ('CN1CC(=O)NC1=N', 'inactive'),
  ('CC(CN(C)C)C(C)(O)Cc1ccc(Cl)cc1 (stereo unspecified)', 'inactive'),
  ('Cc1ccccc1N=Nc1ccc(N=Nc2c(O)ccc3ccccc23)c(C)c1', 'inactive'),
  ('Cc1ccc2c(c1)c1c3n2CCNC3CCC1 (stereo unspecified)', 'inactive'),
  ('Nc1ncnc2c1ncn2[C@@H]1O[C@H](COP(=O)(O)O)[C@@H](O)[C@H]1O', 'inactive'),
  ('NS(=O)(=O)c1cc(C2(O)NC(=O)c3ccccc32)ccc1Cl (stereo unspecified)', 'inactive'),
  ('C[n+]1ccccc1/C=N/O', 'inactive'),
  ('C1CCN2C[C@@H]3C[C@@H](CN4CCCC[C@@H]34)[C@H]2C1', 'inactive'),
  ('CCN(CC)CC1CCCCN1CC(=O)N1c2ccccc2C(=O)Nc2cccnc21 (stereo unspecified)', 'inactive'),
  ('CN[C@@H]1[C@H](O)[C@H](NC)[C@H]2O[C@@]3(O)C(=O)C[C@@H](C)O[C@H]3O[C@@H]2[C@H]1O', 'inactive'),
  ('Cn1c(=O)c2c(ncn2CCO)n(C)c1=O', 'inactive');

====

# system_tested: Ubiquitin carboxyl-terminal hydrolase 1 (Homo sapiens) (UniProt O94782)
# Sequence (O94782 whole entry, looked up): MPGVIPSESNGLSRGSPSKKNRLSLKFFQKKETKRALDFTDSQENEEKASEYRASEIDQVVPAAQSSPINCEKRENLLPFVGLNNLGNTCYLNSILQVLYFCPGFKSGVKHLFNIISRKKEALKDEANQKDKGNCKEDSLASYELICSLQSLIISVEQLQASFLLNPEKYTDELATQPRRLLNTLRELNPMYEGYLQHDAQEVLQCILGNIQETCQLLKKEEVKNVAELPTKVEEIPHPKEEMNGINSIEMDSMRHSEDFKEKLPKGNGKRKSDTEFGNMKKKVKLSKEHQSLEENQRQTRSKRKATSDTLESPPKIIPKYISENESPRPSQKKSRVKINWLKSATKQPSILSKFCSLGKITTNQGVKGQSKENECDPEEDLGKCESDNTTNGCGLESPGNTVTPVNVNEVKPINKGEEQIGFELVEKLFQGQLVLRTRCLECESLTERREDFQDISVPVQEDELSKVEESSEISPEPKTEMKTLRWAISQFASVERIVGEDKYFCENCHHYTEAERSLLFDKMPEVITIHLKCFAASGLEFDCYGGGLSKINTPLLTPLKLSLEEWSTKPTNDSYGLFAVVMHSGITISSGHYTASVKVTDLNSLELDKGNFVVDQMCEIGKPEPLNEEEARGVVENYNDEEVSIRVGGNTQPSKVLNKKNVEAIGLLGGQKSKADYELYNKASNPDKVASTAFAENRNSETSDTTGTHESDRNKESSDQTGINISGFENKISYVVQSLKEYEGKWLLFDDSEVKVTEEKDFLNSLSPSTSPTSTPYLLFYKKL
# assay_summary: Inhibitors of USP1/UAF1: Pilot qHTS (AID 504865); note: nearly all actives have a fitted effect of over 35% in size
# reported_conditions: purified USP1/UAF1, Ub-rhodamine cleavage fluorescence; series mostly up to 114 µM
Results filed as inconclusive are left out. Calls of active or inactive are those of the source. Calls follow the shape of the dose curve; as a rule, active = well fitted inhibition curve with a large enough effect; inconclusive = small, poorly fitted or top-dose-only effect; inactive = flat fitted curve, though single readings scatter.
Outcomes: true (active), false (inactive)

INSERT INTO measurements (compound, classification) VALUES
  ('O=C(O)c1ccccc1OP(=O)(O)O', 'false'),
  ('Nc1c2c(nc3c1CCC3)CCCC2', 'false'),
  ('CN1C(C)(C)CCCC1(C)C', 'false'),
  ('CCN(CC)S(=O)(=O)c1ccc(C(=O)O)cc1', 'false'),
  ('COc1ccc(NS(=O)(=O)c2ccc(N)cc2)nn1', 'false'),
  ('CC(=O)NCc1c(I)c(NC(C)=O)c(I)c(C(=O)O)c1I', 'false'),
  ('CCCCCCCC(=O)OCC(COC(=O)CCCCCCC)OC(=O)CCCCCCC', 'false'),
  ('O=C(O)Cn1c(C(=O)Nc2nc(-c3ccccc3Cl)cs2)cc2ccccc21', 'true'),
  ('NC(=O)CC[C@@H](N)C(=O)O', 'false'),
  ('CC(=O)Oc1cccc(O)c1', 'false'),
  ('C/C=C/C(=O)N(CC)c1ccccc1C', 'false'),
  ('O[C@@H]1CO[C@H]2[C@@H]1OC[C@@H]2O', 'false'),
  ('O=C(O)CCCCC1CCSS1 (centres undefined)', 'false'),
  ('COc1cc(C(=O)NCCCCCC(=O)O)cc(OC)c1OC', 'false');

====

# assay_summary: qHTS of pediatric cancer cell lines to identify multiple opportunities for drug repurposing: Primary screen for A673 cells (AID 1347092); note: % is set by controls: 0 for no effect and ±100 for the full control effect; nearly all actives have a fitted effect of over 45% in size
# reported_conditions: A673 Ewing sarcoma viability, CellTiter-Glo ATP luminescence, 48 h; series mostly up to 46 µM
Records with an inconclusive call do not appear. Active and inactive are the calls of the source. The call rests on the fitted dose curve; in most records, active means well fitted cell-killing curve with a large enough effect; inconclusive means small, poorly fitted or top-dose-only effect; inactive means no such curve, though single readings can be large or run the other way.
value_kind: activity change, negative = cytotoxic

INSERT INTO measurements (compound, value_kind, measured_result) VALUES
  ('NC(=O)N[C@@H](CCC(=O)O)C(=O)O', 'activity change, negative = cytotoxic', 'inactive'),
  ('CN1C[C@@H]2C[C@H]1CN2c1cc2c(cc1F)c(=O)c(C(=O)O)cn2C1CC1', 'activity change, negative = cytotoxic', 'inactive'),
  ('O=C(NCCCN1CCOCC1)c1ccc(Cl)cc1', 'activity change, negative = cytotoxic', 'inactive'),
  ('CC1CCN(CCCC(=O)c2ccc(F)cc2)CC1', 'activity change, negative = cytotoxic', 'inactive'),
  ('OCCN1C[C@H](O)[C@@H](O)[C@H](O)[C@H]1CO', 'activity change, negative = cytotoxic', 'inactive'),
  ('Cc1ccc(C(C)C)c(O)c1', 'activity change, negative = cytotoxic', 'inactive'),
  ('C[N+](C)(C)CC(O)CC(=O)[O-] (configuration not stated)', 'activity change, negative = cytotoxic', 'inactive'),
  ('CN[C@@H]1[C@@H](O)[C@@H](O[C@@H]2[C@H](O)[C@H](O[C@H]3OC(CN)=CC[C@H]3N)[C@@H](N)C[C@H]2N)OCC1(C)O (some centres not stated)', 'activity change, negative = cytotoxic', 'inactive'),
  ('NC(=O)NC1NC(=O)NC1=O (configuration not stated)', 'activity change, negative = cytotoxic', 'inactive'),
  ('CCCCCCCCCCCCCCCCN', 'activity change, negative = cytotoxic', 'inactive'),
  ('NS(=O)(=O)c1ccc(C(=O)O)cc1', 'activity change, negative = cytotoxic', 'inactive'),
  ('Nc1ccc(S(=O)(=O)c2ccc(N)cc2)cc1', 'activity change, negative = cytotoxic', 'inactive');

====

# Tested on: HB3
# assay_summary: qHTS profiling for inhibitors of Plasmodium falciparum proliferation (AID 504749); note: nearly all actives have a fitted effect of over 60% in size
# reported_conditions: P. falciparum in erythrocytes, SYBR Green DNA, 72 h; series mostly up to 28.7 µM
Records with an inconclusive call do not appear. The source made the active and inactive calls. The call rests on the fitted dose curve; in most records, active means well fitted inhibition curve with a large enough effect; inconclusive means small, poorly fitted or top-dose-only effect; inactive means flat fitted curve, though single readings scatter.
Outcome codes: active, inactive

INSERT INTO results (compound, classification) VALUES
  ('CCCC(O)C(CC)CO (stereo not drawn)', 'inactive'),
  ('CC(C)C[C@@H](N)C(=O)O', 'inactive'),
  ('c1ccc2[nH]ccc2c1', 'inactive'),
  ('O=C(O)Cn1c(C(=O)Nc2nc(-c3ccccc3Cl)cs2)cc2ccccc21', 'inactive'),
  ('CN(C(=O)c1c(O)c2ccccc2n(C)c1=O)c1ccccc1', 'inactive'),
  ('FC(F)(F)C(Cl)Br (stereo not drawn)', 'inactive'),
  ('CC(C)CCOC(=O)c1ccc(N(C)C)cc1', 'inactive'),
  ('CC(C)c1cc2c(cc1S(=O)(=O)O)[C@@]1(C)CCC[C@@](C)(C(=O)O)[C@@H]1CC2', 'inactive'),
  ('NC(N)=NCCN1CCCCCCC1', 'inactive'),
  ('O=C(O)COC(=O)Cc1ccccc1Nc1c(Cl)cccc1Cl', 'inactive'),
  ('CC(C(=O)O)c1ccc2c(c1)Cc1cccnc1O2 (stereo not drawn)', 'inactive'),
  ('CC(=O)N(CC(O)CO)c1c(I)c(C(=O)NCC(O)CO)c(I)c(C(=O)NCC(O)CO)c1I (stereo not drawn)', 'active'),
  ('Cn1c([N+](=O)[O-])cnc1COC(N)=O', 'inactive');

====

# assay_summary: Confirmation and Secondary Assay for Modulators of Hemoglobin Beta Chain Splicing at IVS2 654 locus (AID 910);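 note: HeLa cells stably carrying EGFP split by mutant beta-globin IVS2-654 intron; per-well total GFP intensity by laser scanning cytometry after 2-day treatment; % of control where 0% means no effect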
# reported_conditions: HeLa EGFP-654 splicing reporter, GFP fluorescence, 48 h; series mostly up to 46.1 µM
The source made the active and inactive calls. Calls follow the shape of the dose curve; as a rule, active = well fitted activation curve with a large enough effect; inconclusive = small, poorly fitted or top-dose-only effect; inactive = flat fitted curve, though single readings scatter.
value_kind: outcome

INSERT INTO measurements (input_smiles, value_kind, measured_result) VALUES
  ('CC(=O)Nc1cccc(O)c1', 'outcome', 'inactive'),
  ('Cc1cc(C)nc(NS(=O)(=O)c2ccc(N)cc2)n1', 'outcome', 'inactive'),
  ('Cc1cc(O)cc(C)c1Cl', 'outcome', 'inactive'),
  ('Nc1ccc(S(=O)(=O)c2ccc(N)cc2)cc1', 'outcome', 'inactive'),
  ('NCc1ccc(S(N)(=O)=O)cc1', 'outcome', 'inactive'),
  ('Cc1c(NC(=O)c2cccnc2)c(=O)n(-c2ccccc2)n1C', 'outcome', 'inactive'),
  ('NC(N)=NS(=O)(=O)c1ccc(N)cc1', 'outcome', 'inactive');

====

Listed below: max response values for each entry.
# assay_summary: qHTS Assay for Lipid Storage Modulators (AID 1519)
# reported_conditions: Drosophila S3 cells, BODIPY lipid droplet/cell ratio, laser cytometry; measured here: cell count channel max response; cells loaded with oleic acid
Inconclusive results are not listed.
value_kind: max response

INSERT INTO measurements (molecule, measured_result) VALUES
  ('O=C(O)c1ccccc1OP(=O)(O)O', '3.1%'),
  ('Cc1ccsc1/C=C/C1=NCCCN1C', '12.1%'),
  ('CC(=O)Nc1cccc(O)c1', '10%'),
  ('Cc1[nH]c(C)c(Cl)c(=O)c1Cl', '4.05%'),
  ('CC(=O)Nc1ccccc1', '6.17%'),
  ('CCc1cccc(CC)c1NC(=O)CN(CC(=O)O)CC(=O)O', '-4.83%'),
  ('Cc1cc(NC(=O)C2=C(O)c3ccccc3S(=O)(=O)N2C)no1', '-4.56%'),
  ('C[C@@H](N)C(=O)O', '-10.1%'),
  ('CCN(CC)CCc1nc(-c2ccccc2)no1', '-16%'),
  ('C=CCSCC1Nc2cc(Cl)c(S(N)(=O)=O)cc2S(=O)(=O)N1 (stereo not drawn)', '6.41%'),
  ('CC(C)(C)C(=O)OCOC(=O)[C@@H]1N2C(=O)[C@@H](NC(=O)[C@H](N)c3ccccc3)[C@H]2SC1(C)C', '-13%'),
  ('CC(C)=CCC/C(C)=C/CO', '14.3%'),
  ('CN1CCCN=C1COC(=O)C(O)(c1ccccc1)C1CCCCC1 (stereo not drawn)', '7.14%');
